System Tested: Perilipin-5 (Homo sapiens) + 1-acylglycerol-3-phosphate O-acyltransferase ABHD5 (Homo sapiens) (UniProt Q00G26+Q8WTS1)
Sequence (Q00G26 whole entry, looked up, the tested form may be a part): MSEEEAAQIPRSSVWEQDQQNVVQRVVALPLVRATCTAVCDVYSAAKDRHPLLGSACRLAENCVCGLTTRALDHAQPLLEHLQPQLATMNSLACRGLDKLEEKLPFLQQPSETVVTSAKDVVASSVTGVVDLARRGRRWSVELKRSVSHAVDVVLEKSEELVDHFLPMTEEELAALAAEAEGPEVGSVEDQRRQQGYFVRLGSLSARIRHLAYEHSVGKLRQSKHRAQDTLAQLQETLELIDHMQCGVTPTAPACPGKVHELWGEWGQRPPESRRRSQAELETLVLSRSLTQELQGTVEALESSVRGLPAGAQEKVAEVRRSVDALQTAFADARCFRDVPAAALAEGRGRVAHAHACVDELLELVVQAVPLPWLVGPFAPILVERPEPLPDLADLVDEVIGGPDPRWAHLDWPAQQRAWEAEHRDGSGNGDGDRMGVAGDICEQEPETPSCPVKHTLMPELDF
Sequence (Q8WTS1 whole entry, looked up, the tested form may be a part): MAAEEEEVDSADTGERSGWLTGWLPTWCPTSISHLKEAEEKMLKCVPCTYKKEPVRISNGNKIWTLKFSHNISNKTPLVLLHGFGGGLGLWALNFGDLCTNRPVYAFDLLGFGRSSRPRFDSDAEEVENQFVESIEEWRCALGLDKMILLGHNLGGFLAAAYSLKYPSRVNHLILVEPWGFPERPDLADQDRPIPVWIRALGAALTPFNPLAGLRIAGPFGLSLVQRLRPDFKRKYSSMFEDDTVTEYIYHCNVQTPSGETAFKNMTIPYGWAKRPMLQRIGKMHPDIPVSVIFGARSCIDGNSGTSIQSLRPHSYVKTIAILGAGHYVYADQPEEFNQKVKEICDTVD
Experiment: blockers of ABHD5 binding to perilipin-5 – cell lysate, luminescence, proteins expressed in HEK293T, dose response (AID 651733);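 note: split Gaussia princeps luciferase complementation between ABHD5 and MLDP fusion proteins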
Run Parameters: ABHD5-PLIN5 interaction
The source made the active and inactive calls. The rule behind the calls is not given here.
Outcomes: true (1) = active, false (0) = inactive

| Molecule | Class Label |
| --- | --- |
| COC(=O)c1cc(=O)n(Cc2ccco2)c(=Nc2ccc(F)cc2)s1 | true (1) |
| CCOC(=O)N1CCN(C(=O)C[C@@H]2C[C@@]3(C(=O)OCC)CCC=C3N(Cc3ccc(Cl)cc3Cl)C2=O)CC1 | true (1) |
| COc1ccc(C(C(=O)NCc2ccccc2)n2c(=O)c(-c3ccco3)nc3ccccc32)cc1 (configuration not stated) | true (1) |
| CC(C)(C)NC(=O)C(c1ccccc1)n1c(=O)c(-c2ccco2)nc2ccccc21 (configuration not stated) | true (1) |
| O=C(NCc1ccccc1)C(c1ccccc1F)n1c(=O)c(-c2ccco2)nc2ccccc21 (configuration not stated) | true (1) |
| COC(=O)c1ccc(Cn2cc(/C=C\[N+](=O)[O-])c3ccccc32)o1 | false (0) |
| O=C(NCc1ccccc1)C(c1cc2ccccc2o1)n1c(=O)c(-c2ccco2)nc2ccccc21 (configuration not stated) | true (1) |
| O=C1NC(=O)N(Cc2ccccc2)C(=O)/C1=C\C=C\c1ccco1 | true (1) |
| CCN(CC)CCC(C)OC(c1ccccc1)c1ccccc1 (configuration not stated) | true (1) |
| CC(c1nc2ccccc2[nH]1)n1c(=O)c(-c2ccco2)nc2ccccc21 (configuration not stated) | true (1) |
| CC(C)(C)NC(=O)C(c1cc2ccccc2o1)n1c(=O)c(-c2ccco2)nc2ccccc21 (configuration not stated) | true (1) |
| Cc1cccc(NC(=O)CSc2nnc(-c3ccco3)c(-c3ccco3)n2)c1 | true (1) |
| Cc1cccc(C)c1NC(=O)C(c1ccccc1F)n1c(=O)c(-c2ccco2)nc2ccccc21 (configuration not stated) | true (1) |
| Oc1ccc2sc(-c3ccccc3O)c(-c3ccc(OCCN4CCCCC4)cc3)c2c1 | false (0) |
| CC(CCc1ccco1)NC(=O)CCc1nnc2ccc(NCc3ccccc3Cl)nn12 (configuration not stated) | true (1) |
| CC1CCN(S(=O)(=O)c2ccc(NC(=O)Cc3ccccc3)cc2)CC1 | true (1) |
| Cc1cccc(C)c1NC(=O)C(c1ccnc2ccccc12)n1c(=O)c(-c2ccco2)nc2ccccc21 (configuration not stated) | true (1) |
